Source listed as patent US11039613B2.

# ASSAY_PROTOCOL: Hydrolytic stability
# Type: physicochemical
# CONDITION_SUMMARY: aqueous buffer/acetonitrile solution, pH 9, pH 9; 40° C.; buffer/acetonitrile; more polar isomer; read-out: Hydrolytic stability pH9 (t½), more polar isomer
PROPERTY_LABEL: half-life

MOLECULE: CC1=CC(O/C=C2/C(=O)NC3Cc4ccccc4C23)N(c2cc(C(F)(F)F)cc(C(F)(F)F)c2)C1=O (centres unmarked) [III-1]
half-life: > 59 h

Input line: Input CC1=CC(O/C=C2/C(=O)NC3c4ccccc4CC23)N(c2cc(C(F)(F)F)cc(C(F)(F)F)c2)C1=O (centres unmarked) [Compound P1, reference compound] , output reported half-life.
Output line: > 59 h

---

# System: NK Falkone corn seeds
# ASSAY_PROTOCOL: Corn seed germination, cold stress (15° C.)
# Type: in vivo
# CONDITION_SUMMARY: Rate 10 μM, control T50 = 110 hours
Each entry below lists one item and its recorded T50 (% vs control) value.
Give your result in % vs control as a bare value.

Consider the reported T50 (% vs control) for these compounds:
COMPOUND: CC1=CC(O/C=C2/C(=O)NC3c4ccccc4CC23)N(c2cc(C(F)(F)F)cc(C(F)(F)F)c2)C1=O (centres unmarked) [Compound P1, reference compound]
TESTED_ON: NK Falkone corn seeds
T50 (% vs control): −8.95
--
COMPOUND: CC1=C[C@H](O/C=C2/C(=O)O[C@@H]3Cc4ccccc4[C@H]23)N(c2cc(C(F)(F)F)cc(C(F)(F)F)c2)C1=O
TESTED_ON: NK Falkone corn seeds
T50 (% vs control): −2.70

Input line: Input CC1=CC(O/C=C2/C(=O)OC3c4ccccc4CC23)N(c2cc(C(F)(F)F)cc(C(F)(F)F)c2)C1=O (centres unmarked) [Compound P2, reference compound] , output reported T50 (% vs control).
Output line: −2.0

Input line: Input CC1=CC(O/C=C2/C(=O)NC3Cc4ccccc4C23)N(c2cc(C(F)(F)F)cc(C(F)(F)F)c2)C1=O (centres unmarked) , output reported T50 (% vs control).
Output line: −8.5

Input line: Input `CC1=C[C@@H](O/C=C2/C(=O)O[C@@H]3Cc4ccccc4[C@H]23)N(c2cc(C(F)(F)F)cc(C(F)(F)F)c2)C1=O` , output reported T50 (% vs control).
Output line: −2.50

---

# ASSAY_PROTOCOL: Hydrolytic stability
# Assay type: physicochemical
# CONDITION_SUMMARY: aqueous buffer/acetonitrile solution, pH 9, pH 9; 40° C.; buffer/acetonitrile; less polar isomer; read-out: Hydrolytic stability pH9 (t½), less polar isomer (converted)
PROPERTY_LABEL: half-life (days)
Give your result in days as a bare value.

Input line: Input CC1=CC(O/C=C2/C(=O)NC3c4ccccc4CC23)N(c2cc(C(F)(F)F)cc(C(F)(F)F)c2)C1=O (centres unmarked) [Compound P1, reference compound] , output reported half-life.
Output line: 2.46
